B1: CPEB3 Ribozyme (parent)
chain: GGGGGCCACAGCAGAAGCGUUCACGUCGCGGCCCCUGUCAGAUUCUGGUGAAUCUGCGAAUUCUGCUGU

- Variants of: B1
- ASSAY_SUMMARY: self-cleavage, relative activity (ratio to wild type); higher = more cleavage; co-transcriptional
Could you label it label 1 if measured self-cleavage is 0.4 or higher, and label 0 otherwise?

mutation_annotation="G58A G68C" answer_label="label 1"
mutation_annotation="U20G G37U" answer_label="label 0"
mutation_annotation="C12G A51U" answer_label="label 1"
mutation_annotation="G4U U61G" answer_label="label 1"
mutation_annotation="A15C C66G" answer_label="label 0"
mutation_annotation="G14U U21G" answer_label="label 0"
mutation_annotation="G19A G37C" answer_label="label 0"
